Experiment: qHTS Assay for Lipid Storage Modulators (AID 1519)
Details: Drosophila S3 cells, BODIPY lipid droplet/cell ratio, laser cytometry; measured here: lipid channel max response; cells loaded with oleic acid
Results filed as inconclusive are left out.
value.kind: max response (%)

# molecule, measurement.units, reported.result
data = [
    ("CNCC[C@H](Oc1ccc(C(F)(F)F)cc1)c1ccccc1", "%", 10.4),
    ("CC(C)(O)[C@@H]1[C@H]2OC(=O)[C@@H]1[C@]1(O)C[C@H]3O[C@]34C(=O)O[C@H]2[C@@]14C (tested in a mixture with another compound)", "%", -11.1),
    ("O=C(O)[C@@H]1C[C@H]2C[C@@H](CP(=O)(O)O)CC[C@H]2CN1", "%", -11.2),
    ("CN1C[C@H](CNC(=O)OCc2ccccc2)C[C@H]2c3cccc4c3c(cn4C)C[C@@H]21", "%", -20.5),
    ("NC(N)=Nc1ccc2[nH]c3c(c2c1)C[C@]1(O)[C@@H]2Cc4ccc(O)c5c4[C@]1(CCN2CC1CC1)[C@@H]3O5", "%", 1.06),
    ("CC(=O)N1CC[N+](C)(C)CC1", "%", -0.222),
    ("C=CCSSCC=C", "%", 18.2),
    ("CC(C)NC[C@H](O)c1ccc(N)c(C#N)c1", "%", 26.1),
    ("N[C@H](CCCCCP(=O)(O)O)C(=O)O", "%", -15.1),
    ("O=c1ccc2c(O)c3ccoc3cc2o1", "%", 27.4),
]

----------
System: OV90
Test: Primary qHTS to identify gynecologic anti-cancer compounds using libraries of approved drugs and bioactive compounds (AID 1345084); also: nearly all actives have a fitted effect of over 55% in size
Details: Gynecologic cancer cell panel viability, ATPlite luminescence, 48 h; series mostly up to 57.5 µM
Inconclusive results are not listed. The source made the active and inactive calls. Calls come from the whole dose curve; as a rule, active = well fitted cell-killing curve with a large enough effect; inconclusive = small, poorly fitted or top-dose-only effect, or effect the other way; inactive = flat fitted curve, though single readings scatter.
Outcome codes: active, inactive

# compound, answer.label
data = [
    ("Clc1ccc([C@]23CNC[C@H]2C3)cc1Cl", "inactive"),
    ("CNc1ccc2oc(C[C@H]3O[C@@]4(CC[C@H]3C)O[C@H](C(C)C(=O)c3ccc[nH]3)[C@H](C)C[C@H]4C)nc2c1C(=O)O (some centres undefined)", "active"),
    ("CC(=O)O[C@H]1CC[C@@]2(CI)C(=CC[C@@H]3[C@@H]2CC[C@]2(C)C(=O)CC[C@@H]32)C1", "inactive"),
    ("C[C@H]1CCC/C=C/C2C[C@H](O)C[C@H]2[C@H](O)/C=C/C(=O)O1 (some centres undefined)", "active"),
    ("Cc1ccc2c(c1)[C@H]1CN(C)CC[C@H]1N2C(=O)CSc1nnnn1-c1ccc(Cl)cc1", "inactive"),
    ("C[C@]12CC[C@H](OC3OC(CO)C(O)C(O)C3OC3OC(CO)C(O)C(O)C3O)C[C@@H]1CC[C@@H]1C2CC[C@]2(C)[C@@H](C3=CC(=O)OC3)CC[C@]12O (some centres undefined)", "inactive"),
    ("CC(=O)NCCCOc1ccc(C(=O)N2CCC(N3C(=O)CCc4ccccc43)CC2)cc1", "inactive"),
    ("COC(=O)[C@@]1(C)C(=O)C=C[C@]2(C)c3c(O)cc(C(C)C)cc3[C@H](O)[C@@H](OC(C)=O)C12 (some centres undefined)", "inactive"),
    ("CCCCCn1cc(C(=O)Oc2cccc3cccnc23)c2ccccc21", "inactive"),
]

----------
Assay: qHTS for Inhibitors of the Functional Ribonucleoprotein Complex (vRNP) of Lassa (LASV) Arenavirus: Viability assay - alamar blue signal for LASV Primary Screen (AID 1347083); also: nearly all actives have a fitted effect of over 80% in size
Details: cell viability, alamar blue fluorescence (LASV minigenome counter-screen); series mostly up to 57.5 µM
Inconclusive results are not listed. The source made the active and inactive calls. Calls come from the whole dose curve; tested in HEK293 reporter line.
Outcome codes: Y (active), N (inactive)

# compound, answer.label
records = [
    ("COc1ccc(F)c(F)c1C(=O)c1cnc(NC2CCN(S(C)(=O)=O)CC2)nc1N", "Y"),
    ("CN1CCc2cc(Cl)c(O)cc2[C@@H](c2ccccc2)C1", "N"),
    ("O=C(O)c1cc(N(Cc2ccccc2O)Cc2ccccc2O)ccc1O", "N"),
    ("NC1CONC1=O (stereo not drawn)", "N"),
    ("COc1cc2c(cc1Cc1cccc(Cl)c1F)c(=O)c(C(=O)O)cn2[C@H](CO)C(C)C", "N"),
    ("Fc1ccc(CN(C2=NCCN2)c2c(Cl)cccc2Cl)cc1", "N"),
    ("CCCOC(=O)c1c(-c2ccccc2)nc(CC)c(C(=O)SCC)c1CCC", "N"),
    ("O=c1c2c(O)cc(O)cc2oc2c(O)ccc(O[C@H]3O[C@@H](CO)[C@H](O)[C@@H](O)[C@@H]3O)c12", "N"),
    ("N[C@H](C(=O)O)c1ccc(O)c(C(=O)O)c1", "N"),
    ("O=c1cc(O)cc(/C=C/c2ccc(O)c(O)c2)o1", "N"),
    ("Oc1cc2c(cc1O)C(c1ccccc1)CNCC2 (stereo not drawn)", "N"),
    ("Cc1cccc(C2CN(C)CCc3c2cc(O)c(O)c3Cl)c1 (stereo not drawn)", "N"),
    ("CCCCCC(O)CCCC(=O)O (stereo not drawn)", "N"),
    ("COc1cc(N)c(Cl)cc1C(=O)OCCN1CCCCC1", "N"),
    ("CC(C(=O)O)c1ccc(C(=O)c2cccs2)cc1 (stereo not drawn)", "N"),
    ("Cn1cc(C(F)(F)F)nc1-c1ccc(OCC(O)CNCCOc2ccc(O)c(C(N)=O)c2)cc1 (stereo not drawn)", "N"),
    ("CN[C@H]1[C@@H](O[C@@H]2[C@H](O[C@@H]3[C@@H](O)[C@@H](O)[C@@H](N=C(N)N)[C@@H](O)[C@@H]3N=C(N)N)O[C@H](C)[C@@]2(O)C=O)O[C@@H](CO)[C@@H](O)[C@H]1O", "N"),
    ("C/C=C/c1ccc2oc(-c3ccc(O)cc3)c(C)c2c1", "N"),
    ("CC1(C)C[C@H]2C3=CCC4[C@@]5(C)CC[C@H](O)[C@](C)(CO)C5CC[C@@]4(C)[C@]3(C)C[C@@H](O)[C@@]2(CO)[C@@H](O)[C@@H]1O (stereo partly drawn)", "N"),
    ("N[C@@H](Cc1ccc(O)c(O)c1)C(=O)O", "N"),
    ("CC(C)=CC(=O)O[C@@H]1Cc2cc3ccc(=O)oc3cc2OC1(C)C", "N"),
    ("COC(=O)Nc1ccc(-c2nc(N3CCOCC3)c3cnn(C4CCN(Cc5cccnc5)CC4)c3n2)cc1", "Y"),
    ("CC(C)C[C@H](NC(=O)C1OC1C(=O)O)C(=O)NCCCCN=C(N)N (stereo partly drawn)", "N"),
    ("CC(=O)NCCc1c[nH]c2ccc(O)cc12", "N"),
    ("Cc1cc(O)c2c(c1O)C(=O)C(O)=C(O)C2=O", "N"),
    ("CC1CCN(CC[C@H]2CCCN2S(=O)(=O)c2cccc(O)c2)CC1", "N"),
    ("CCN1C[C@]2(C)CCC(OC)[C@@]34C5C[C@@H]6CC[C@@](O)(C5C(=O)O6)[C@@H](C(O)C23)[C@@H]14 (stereo partly drawn)", "N"),
    ("CN1CCc2cc(NC(=O)Nc3cccnc3)ccc21", "N"),
    ("CN1C2CCC1CC(OC(=O)C(CO)c1ccccc1)C2 (stereo not drawn)", "N"),
    ("C[C@H]1CC2C3CCC4=CC(=O)C=C[C@]4(C)[C@@]3(Cl)[C@@H](O)C[C@]2(C)[C@@]1(O)C(=O)CO (stereo partly drawn)", "N"),
    ("N#C/C(=C\\c1c[nH]c2ccccc12)C(=O)c1ccc(O)c(O)c1", "N"),
    ("O=C(CC12CC3CC(CC(C3)C1)C2)Nc1cccc2nc(NCCNCCO)ccc12", "Y"),
    ("O=[N+]([O-])c1cccc2cn[nH]c12", "N"),
    ("CC(O)C(C)O (stereo not drawn)", "N"),
    ("CNc1cc(NS(=O)(=O)c2ccc(N)cc2)nc(NC)n1", "N"),
    ("O=c1c(O)c(-c2ccc(O)cc2)oc2cc(O)cc(O)c12", "N"),
    ("COc1c(C)c2c(c(O)c1CC=C(C)CCC(=O)OCCN1CCOCC1)C(=O)OC2", "Y"),
    ("CC(=O)OC/C=C(\\C)CCC=C(C)C", "N"),
    ("CC(C)(O)CC[C@@H](O)[C@](C)(O)C1CC[C@@]2(O)C3=CC(=O)[C@]4(O)C[C@@H](O)[C@@H](O)C[C@]4(C)C3CC[C@]12C (stereo partly drawn)", "N"),
    ("CC(C)(CO)[C@@H](O)C(=O)NCCC(=O)O", "N"),
    ("O=C(CCCCCCC(=O)Nc1cccnc1)NO", "Y"),
    ("O=C(O)CF", "N"),
    ("O=[N+]([O-])c1ccc(-c2nc(-c3ccc(F)cc3)c(-c3ccncc3)[nH]2)cc1", "N"),
]
